System: Factor VII/VIIa deficient human plasma
Assay: DDPTGA (reagent B) in FVII depleted plasma
Conditions: compounds at 50 μM and 80, 90 or 100 μM
Where no end group is shown, it is not given here.

SUBSTANCE	Stimulation of thrombin generation
Ac-WDLYFEIVW-NH2 [Peptide A05]	+
H-ERMEFDVWDLYFEIVW-NH2 [Peptide A09]	+
Ac-RMKFDVWDLYFEIVW-NH2 [Peptide A01]	+
Ac-PMKFDVWDLYFEIVW-NH2 [Peptide A02]	+
Ac-WDLYFEIVW-ttds-E [Peptide A07]	+
Ac-WDLYFEIVWE [Peptide A06]	+

* * *

Peak Time FVIII EU for assorted substances
Test system: FVIII deficient plasma
Assay: Defined Dual-Pathway Thrombin Generation Assay (DDPTGA, reagent C high), FVIII deficient plasma
Type: biochemical, human
Settings: peptide 50 μM; FVIII deficient plasma
Where no end group is shown, it is not given here.

SUBSTANCE	TARGET_OR_TEST_SYSTEM	Peak Time FVIII EU
H-ERMEFDVWDLYFEIVW-NH2 [Peptide A09]	FVIII deficient plasma	27.2 mU/ml
PEG5000-WSLYFEIVWE [Peptide A17]	FVIII deficient plasma	5.1 mU/ml

* * *

Test: in vitro
Conditions: human, plasma, pH 7.4
MEASURED_PARAMETER: fraction unbound at 6 h, 5 μM

SUBSTANCE	READING
Ac-RMKFDVWDLYFEIVW-NH2 [Peptide A01]	< 0.017

* * *

Assay: in vivo
Conditions: C57BL/6, mouse, ip
Where no end group is shown, it is not given here.
level at 40 min for assorted substances

SUBSTANCE	level at 40 min / ng/mL
Ac-WDLYFEIVWE [Peptide A06]	547
Ac-WDLYFEIVW-NH2 [Peptide A05]	185
Ac-PMKFDVWDLYFEIVW-NH2 [Peptide A02]	289
H-ERMEFDVWDLYFEIVW-NH2 [Peptide A09]	60

* * *

Assay: in vitro
Conditions: human, plasma
Where no end group is shown, it is not given here.
remaining at 0.5 h, 5 μM for assorted substances
MEASURED_PARAMETER: remaining at 0.5 h, 5 μM

SUBSTANCE	READING
Ac-PMKFDVWDLYFEIVW-NH2 [Peptide A02]	84%
Ac-RMKFDVWDLYFEIVW-NH2 [Peptide A01]	58%
H-ERMEFDVWDLYFEIVW-NH2 [Peptide A09]	67%
Ac-WDLYFEIVW-NH2 [Peptide A05]	93%
Ac-WDLYFEIVWE [Peptide A06]	98%

* * *

level at 80 min for assorted substances
Test: in vivo
Conditions: C57BL/6, mouse, ip
Where no end group is shown, it is not given here.

SUBSTANCE	level at 80 min
H-ERMEFDVWDLYFEIVW-NH2 [Peptide A09]	74 ng/mL
Ac-PMKFDVWDLYFEIVW-NH2 [Peptide A02]	99 ng/mL
Ac-WDLYFEIVW-NH2 [Peptide A05]	49 ng/mL
Ac-WDLYFEIVWE [Peptide A06]	4060 ng/mL

* * *

Molecular target: mouse serum albumin (Mus musculus, UniProt P07724)
Sequence (P07724 25-608): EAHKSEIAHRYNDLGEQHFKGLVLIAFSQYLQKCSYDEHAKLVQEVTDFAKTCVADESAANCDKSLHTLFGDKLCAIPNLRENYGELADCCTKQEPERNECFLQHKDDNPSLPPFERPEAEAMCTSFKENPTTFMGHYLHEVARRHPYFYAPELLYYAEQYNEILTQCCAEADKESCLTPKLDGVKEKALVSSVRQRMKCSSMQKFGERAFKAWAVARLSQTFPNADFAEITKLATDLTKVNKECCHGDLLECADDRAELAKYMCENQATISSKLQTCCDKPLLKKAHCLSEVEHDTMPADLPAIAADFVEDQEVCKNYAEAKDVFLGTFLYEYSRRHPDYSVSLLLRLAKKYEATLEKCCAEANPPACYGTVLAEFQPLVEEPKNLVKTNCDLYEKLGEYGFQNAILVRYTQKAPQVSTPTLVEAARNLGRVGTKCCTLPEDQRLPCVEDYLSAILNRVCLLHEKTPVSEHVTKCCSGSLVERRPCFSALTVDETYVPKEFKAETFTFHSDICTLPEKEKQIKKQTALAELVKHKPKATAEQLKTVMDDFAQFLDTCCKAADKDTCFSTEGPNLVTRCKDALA
Test: in vitro
Conditions: pH 7.4
MEASURED_PARAMETER: fraction unbound at 6 h, 5 μM

SUBSTANCE	TARGET_OR_TEST_SYSTEM	MEASURED_PARAMETER	READING
Ac-RMKFDVWDLYFEIVW-NH2 [Peptide A01]	mouse serum albumin (Mus musculus, UniProt P07724)	fraction unbound at 6 h, 5 μM	< 0.003
